molecular target: human C5 protein (human, UniProt P01031 19-673; P01031 678-1676); experiment: cell-based or functional assay
Positions of bridges follow the written chain, without caps; N, C: chain ends. Non-standard residues stand in square brackets, D forms with d. Primed or numbered codes have the meaning given here. mXylyl(3) = bridging moiety between the two residues given in brackets; Trp(7-aza) = N[C@@H](Cc1c[nH]c2ncccc12)C(=O)O; Trp(1-Me) = Cn1cc(C[C@H](N)C(=O)O)c2ccccc21; Phg = N[C@H](C(=O)O)c1ccccc1; Tle = CC(C)(C)[C@H](N)C(=O)O; NMeS = CN[C@@H](CO)C(=O)O; Nva = CCC[C@H](N)C(=O)O
The entries below come with measured Avg. IC50, human hemolysis assay values attached.
assay-endpoint: Avg. IC50, human hemolysis assay

[[record]]
binder = "Ac-[Nva]C[Phg]T[Trp(1-Me)]EY[NMeS]AC[Nva]-NH2 (linker 2-10 via mXylyl(3)) [R3109]"
observed_value = "> 100 µM"

[[record]]
binder = "Ac-[Nva]T[Phg]C[Trp(7-aza)]EY[NMeS]AC[Nva]-NH2 (linker 4-10 via mXylyl(3)) [R3111]"
observed_value = "> 5 µM"

[[record]]
binder = "Ac-[Nva]CYNN[Tle]E[Trp(7-aza)]ECP[Phg][Tle]-NH2 (cysteine pairing not given here) [R3126]"
observed_value = "> 3 µM"

